FYI, the data here is from patent US20230134571A1.

- assayed system: HIV Env of isolate BF1266.431a (clade C) (HIV)
- assay explanation: cell-based or functional assay
Assignment: determine reported IC50 (µg/ml) with constrains for the given binders.
One number for each entry, in µg/mL.

Below, each entry is followed by its recorded IC50 (µg/ml) with constrains result.
binder	IC50 (µg/ml) with constrains (µg/mL)
PGDM1400 (antibody, V domains shown) VH: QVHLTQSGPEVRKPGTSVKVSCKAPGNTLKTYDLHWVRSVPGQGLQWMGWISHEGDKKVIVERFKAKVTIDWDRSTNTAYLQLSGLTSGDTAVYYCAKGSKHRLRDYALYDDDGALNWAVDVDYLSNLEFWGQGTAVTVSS VL: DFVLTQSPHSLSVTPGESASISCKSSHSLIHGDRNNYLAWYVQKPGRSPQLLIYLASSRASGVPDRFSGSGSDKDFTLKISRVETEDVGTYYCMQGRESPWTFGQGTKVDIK	0.006
ePGDM9 (antibody, V domains shown) VH: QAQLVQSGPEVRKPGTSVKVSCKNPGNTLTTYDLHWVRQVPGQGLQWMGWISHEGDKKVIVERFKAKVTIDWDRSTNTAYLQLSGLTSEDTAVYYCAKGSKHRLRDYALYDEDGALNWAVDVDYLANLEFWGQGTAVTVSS VL: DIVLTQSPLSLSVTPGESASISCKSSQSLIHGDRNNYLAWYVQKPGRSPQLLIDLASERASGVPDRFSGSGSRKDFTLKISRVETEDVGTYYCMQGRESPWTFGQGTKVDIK	0.002
ePGDM13 (antibody, V domains shown) VH: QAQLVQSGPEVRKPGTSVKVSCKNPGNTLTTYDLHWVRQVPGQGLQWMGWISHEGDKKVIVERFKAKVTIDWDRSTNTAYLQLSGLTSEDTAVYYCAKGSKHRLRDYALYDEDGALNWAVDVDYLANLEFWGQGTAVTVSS VL: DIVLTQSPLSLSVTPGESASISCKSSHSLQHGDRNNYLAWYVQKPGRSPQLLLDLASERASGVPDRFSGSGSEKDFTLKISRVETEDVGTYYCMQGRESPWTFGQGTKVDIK	0.004

Prompt line: Param item = ePGDM5 (antibody, V domains shown) VH: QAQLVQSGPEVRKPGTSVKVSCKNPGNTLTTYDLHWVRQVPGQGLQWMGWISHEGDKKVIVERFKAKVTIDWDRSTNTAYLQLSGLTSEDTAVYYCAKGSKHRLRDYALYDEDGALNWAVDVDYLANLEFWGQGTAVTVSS VL: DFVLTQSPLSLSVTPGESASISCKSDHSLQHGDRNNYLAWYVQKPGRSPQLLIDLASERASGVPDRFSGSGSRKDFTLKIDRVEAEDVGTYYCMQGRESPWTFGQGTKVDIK ; retrieve measured IC50 (µg/ml) with constrains.
Response line: 0.004
